test details: Single and multiple dose pharmacokinetics, moderate to severe chronic renal impairment (Example 4, Table 23)
Type: in vivo, human
condition description: human, plasma, oral, 3 ug, severe renal impairment, 3 μg QD, Study Day 8
value kind: Tmax (h)
Give the value, in units of h, as a plain number.

Q. Given the entry C[C@H](/C=C/[C@H](C)C(C)(C)O)[C@H]1CC[C@H]2/C(=C/C=C3C[C@@H](O)C[C@H](O)C3)CCC[C@]12C [Paricalcitol] , report its measured Tmax.
A. 9.1

====

test details: Single and multiple dose pharmacokinetics, 4 μg QD vs 8 μg TIW, subjects in general good health (Example 5)
Type: in vivo, human
condition description: human, plasma, oral, 4 ug, Regimen A 4 μg QD, Study Day 13
value kind: Cmax (ng/mL)
Enter your answer as a number in ng/mL; do not include the unit.

Q. I would be grateful if you could share the reported Cmax for `C[C@H](/C=C/[C@H](C)C(C)(C)O)[C@H]1CC[C@H]2/C(=C/C=C3C[C@@H](O)C[C@H](O)C3)CCC[C@]12C` .
A. 0.105
